Taken from patent US4820834A.

molecular target: CCK receptor (pancreas) (Rattus norvegicus); construct: The whole pancreas was dissected free of fat tissue and was homogenized; from tissue; host or cells: rat pancreas membranes (Sprague-Dawley); experiment: CCK Receptor Binding (Pancreas): inhibition of ^125 I-CCK-33 binding; set-up: species or system Male Sprague-Dawley rats; conditions: IC50 ^125 I-CCK Pancreas, rat pancreas membranes, ^125 I-CCK-33, 37° C., 30 minutes
Sequence (P30551 whole entry): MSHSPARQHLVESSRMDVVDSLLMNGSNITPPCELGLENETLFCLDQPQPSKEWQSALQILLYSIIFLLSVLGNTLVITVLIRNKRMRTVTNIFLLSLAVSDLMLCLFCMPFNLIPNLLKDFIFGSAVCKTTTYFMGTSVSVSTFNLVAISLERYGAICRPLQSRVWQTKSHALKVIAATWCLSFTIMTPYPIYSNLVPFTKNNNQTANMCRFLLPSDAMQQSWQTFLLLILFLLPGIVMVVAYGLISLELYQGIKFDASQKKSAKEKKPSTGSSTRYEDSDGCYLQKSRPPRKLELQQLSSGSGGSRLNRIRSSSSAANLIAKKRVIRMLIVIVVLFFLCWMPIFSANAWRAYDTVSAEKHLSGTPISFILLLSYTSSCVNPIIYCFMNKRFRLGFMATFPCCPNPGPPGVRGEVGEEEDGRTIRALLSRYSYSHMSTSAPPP
pIC50: −log10 of the molar value.
MEASURED PROPERTY: pIC50

1. CN1C(=O)[C@@H](NC(=O)c2ccc(Br)cc2)N=C(c2ccccc2)c2ccccc21: 8.37
2. Cc1ccc(C2=NC(NC(=O)c3cc4ccccc4[nH]3)C(=O)N(C)c3ccccc32)cc1 (centres unmarked): 10.10
3. CCCCCc1ccc(C(=O)NC2N=C(c3ccccc3F)c3ccccc3N(C)C2=O)cc1 (centres unmarked): 6.85
4. CN1C(=O)[C@@H](Cc2c[nH]c3ccccc23)N=C(c2ccccc2F)c2ccccc21: 6.57
5. O=C(NC1N=C(c2ccccc2F)c2ccccc2NC1=O)OCc1ccccc1 (racemic): 6.15
6. O=C1Nc2ccccc2C(c2ccccc2F)=N[C@H]1Cc1c[nH]c2ccccc12: 4.97
7. CCOC(=O)CN1C(=O)C(NC(=O)NC(C)c2ccccc2)N=C(c2ccccc2F)c2ccccc21 (centres unmarked): 5.32
